Data origin: PubChem BioAssay AID1159580

# Protocol Details: chemical genetic growth profiling, strain panel (AID 1159580);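 note: tested at 20 µM; growth read once vehicle control cultures reached saturation at 30 °C; 1 = growth at the plate median or of vehicle wells; lower values mean less growth of the strain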
# Settings: S. cerevisiae deletion strains, growth OD, locus YLR371W, strain rom2, stronger effect = lower value
The campaign covered roughly 5,500 compounds. About 2,000 (36%) were called active. Not shown: some 18% with an inconclusive outcome. This is one part of the list.
normalized growth values, listed per item
Just the number.

Study these solved cases before continuing.
molecule="CC1=C(/C=C/C(C)=C/C=C/C(C)=C/C=C/C=C(C)/C=C/C=C(C)/C=C/C2=C(C)C(=O)C(O)CC2(C)C)C(C)(C)CC(O)C1=O (stereo unspecified)" readout_label="normalized growth" reported=0.981
molecule=COc1ccc2cc([C@H](C)CO)ccc2c1 readout_label="normalized growth" reported=0.918
molecule=CC(C)(O)[C@@H]1[C@H]2OC(=O)[C@@H]1[C@]1(O)C[C@H]3O[C@]34C(=O)O[C@H]2[C@]14C readout_label="normalized growth" reported=1.02
molecule="CC(C(=O)O)c1cccc(Oc2ccccc2)c1 (stereo unspecified)" readout_label="normalized growth" reported=0.962
molecule=COc1cc2c(cc1OC)C(=O)OC2 readout_label="normalized growth" reported=1.01

Quick one: normalized growth for "C[N+](C)(C)CCCCCC[N+](C)(C)C" ?
0.988

Ok, now COc1cc(NC(C)CCCN)c2ncccc2c1 (stereo unspecified)
1.01

Ok, now CC1(C)C(C=C(Cl)Cl)C1C(=O)OC(C#N)c1cccc(Oc2ccccc2)c1 (stereo unspecified)
1

Ok, now "NCCSSCCN"
1.01

Ok, now "COc1ccc2cc([C@H](C)C(=O)O)ccc2c1"
0.989

Ok, now CC(C)CC(NC(=O)C(Cc1ccccc1)NC(=O)CNC(=O)CNC(=O)C(N)Cc1ccc(O)cc1)C(=O)O (stereo unspecified)
0.988

====

# Protocol Details: chemical genetic growth profiling, strain panel (AID 1159580)
# Settings: S. cerevisiae deletion strains, growth OD, locus YNL322C, strain KRE1 (second series), stronger effect = lower value
Among all 5,500 compounds or so, about 2,000 (36%) were called active. Roughly 18% stayed inconclusive and do not appear here. The list shows a part of the results.
Please note: normalized growth exactly at 1 is N. Only values below 1 get Y.

Consider the following illustrative entries.
compound="CC(C(=O)O)c1ccc(-c2ccccc2)c(F)c1 (stereo unspecified)" assigned_class=Y
compound="CCOC(=O)C(Cc1ccc(O)cc1)NC(C)=O (stereo unspecified)" assigned_class=N
compound=CCCCCCCCCCCCCCCC(=O)OC/C=C(C)/C=C/C=C(C)/C=C/C1=C(C)CCCC1(C)C assigned_class=N
compound="CCN(CC)CCCC(C)Nc1ccnc2cc(Cl)ccc12 (stereo unspecified)" assigned_class=N
compound=Oc1cc(Cl)ccc1Oc1ccc(Cl)cc1Cl assigned_class=Y

Check if normalized growth falls below 1 for "CN1CCC(=C2c3ccccc3CCc3sccc32)CC1" .
Y

Ok, now "CCC(=O)O[C@H]1[C@H](O[C@@H]2[C@@H](C)[C@H](O[C@H]3C[C@@](C)(OC)[C@@H](O)[C@H](C)O3)[C@@H](C)C(=O)O[C@H](CC)[C@@](C)(O)[C@H](O)[C@@H](C)C(=O)[C@H](C)C[C@@]2(C)O)O[C@H](C)C[C@@H]1N(C)C"
Y

====

# Protocol Details: chemical genetic growth profiling, strain panel (AID 1159580)
# Settings: S. cerevisiae deletion strains, growth OD, locus YJL164C, strain tpk1, stronger effect = lower value
In all, about 5,500 compounds went through this assay and about 2,000 (36%) were called active. About 18% were inconclusive and are not listed. Some of the results follow.
Readout Label: normalized growth
Just the number.

Study these solved cases before continuing.
compound="COCCc1ccc(OCC(O)CNC(C)C)cc1 (configuration not stated)" reported=1.01
compound="COc1cc(NC(C)CCCN)c2ncccc2c1 (configuration not stated)" reported=1.04
compound="CCOC(=O)C(Cc1ccc(O)cc1)NC(C)=O (configuration not stated)" reported=1
compound="CC(=O)NC1SCCC1=O (configuration not stated)" reported=1.01
compound="CC(=O)[C@H]1CCC2C3CCC4=CC(=O)CC[C@]4(C)C3CC[C@@]21C (some centres not stated)" reported=0.929

Quick one: normalized growth for C[C@]12CCC(=O)C=C1CCC1C2CC[C@@]2(C)C1CC[C@@H]2O (some centres not stated) ?
1.01

Ok, now "COc1cc2c(cc1OC)Cc1cc(OC)c(OC)cc1Cc1cc(OC)c(OC)cc1C2"
1

====

# Protocol Details: chemical genetic growth profiling, strain panel (AID 1159580);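 note: tested at 20 µM; growth read once vehicle control cultures reached saturation at 30 °C; 1 = growth at the plate median or of vehicle wells; lower values mean less growth of the strain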
# Settings: S. cerevisiae deletion strains, growth OD, locus YKR001C, strain vps1, stronger effect = lower value
In all, about 5,500 compounds went through this assay and about 2,000 (36%) were called active. About 18% were inconclusive and are not listed. The list shows a part of the results.
normalized growth values, listed per item
Just the number.

compound="CC(C(=O)O)c1cccc(C(=O)c2ccccc2)c1 (stereo not drawn)" readout_label="normalized growth" reported=0.992
compound=CCOC(=O)c1c(C)cc(O)c(C)c1O readout_label="normalized growth" reported=0.887
compound="CC1CC2C3CCC4=CC(=O)C=C[C@]4(C)[C@@]3(F)[C@@H](O)C[C@]2(C)[C@@]1(O)C(=O)CO (stereo partly drawn)" readout_label="normalized growth" reported=0.968
compound=COc1ccc2c(c1OC)C(=O)O[C@H]2[C@H]1c2cc3c(cc2CCN1C)OCO3 readout_label="normalized growth" reported=1.03
compound=COc1ccc2c(c1OC)C(=O)O[C@@H]2[C@H]1c2cc3c(cc2CCN1C)OCO3 readout_label="normalized growth" reported=1.03
compound="CC1/C(=N\\O)C[C@@H]2C[C@H]1C2(C)C (stereo partly drawn)" readout_label="normalized growth" reported=1.05

Continue with the next compound.
Quick one: normalized growth for CC(C(=O)O)c1cccc(Oc2ccccc2)c1 (stereo not drawn) ?
0.947

====

# Protocol Details: chemical genetic growth profiling, strain panel (AID 1159580);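 note: tested at 20 µM; growth read once vehicle control cultures reached saturation at 30 °C; 1 = growth at the plate median or of vehicle wells; lower values mean less growth of the strain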
# Settings: S. cerevisiae deletion strains, growth OD, locus YKL190W, strain CNB1, stronger effect = lower value
Hit rate of the full screen: of about 5,500 compounds, about 2,000 (36%) were called active. About 18% were inconclusive and are not listed. This is one part of the list.
Readout Label: normalized growth
Just the number.

Study these solved cases before continuing.
compound="CC[C@H](/C=C/C(C)C1CCC2C3CCC4=CC(=O)CC[C@]4(C)C3CC[C@]12C)C(C)C (stereo partly specified)" readout_label="normalized growth" reported=1.01
compound=COc1ccc2cc([C@H](C)C(=O)O)ccc2c1 readout_label="normalized growth" reported=1
compound="CC(Oc1ccccc1)C(=O)N[C@@H]1C(=O)N2[C@@H]1SC(C)(C)[C@@H]2C(=O)O (stereo partly specified)" readout_label="normalized growth" reported=1.01
compound=c1ccc(N=Nc2ccccc2)cc1 readout_label="normalized growth" reported=0.993
compound="CC1=C(CC(=O)O)c2cc(F)ccc2/C1=C\\c1ccc(S(C)=O)cc1 (stereo unspecified)" readout_label="normalized growth" reported=1.01

Quick one: normalized growth for "COc1ccc2c(c1)OCc1c-2oc2cc(OC)ccc12" ?
1

Ok, now "O=C1c2cccc3c([N+](=O)[O-])ccc(c23)C(=O)N1Cc1ccco1"
0.934

Ok, now "COc1cc(/C=C2\NC(=O)NC2=O)ccc1O"
0.986

Ok, now "CCC(=O)O[C@H]1[C@H](O[C@@H]2[C@@H](C)[C@H](O[C@H]3C[C@@](C)(OC)[C@@H](O)[C@H](C)O3)[C@@H](C)C(=O)O[C@H](CC)[C@@](C)(O)[C@H](O)[C@@H](C)C(=O)[C@H](C)C[C@@]2(C)O)O[C@H](C)C[C@@H]1N(C)C"
1.01

Ok, now COc1ccc(C2=C(C(C)=O)C(C)=NC(=S)C2C#N)cc1 (stereo unspecified)
0.987

Ok, now COc1ccc(OC)c(C(O)C(C)N)c1 (stereo unspecified)
1.02

====

normalized growth values, listed per item
# Protocol Details: chemical genetic growth profiling, strain panel (AID 1159580);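 note: tested at 20 µM; growth read once vehicle control cultures reached saturation at 30 °C; 1 = growth at the plate median or of vehicle wells; lower values mean less growth of the strain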
# Settings: S. cerevisiae deletion strains, growth OD, locus YLR320W, strain mms22, stronger effect = lower value
Among all 5,500 compounds or so, about 2,000 (36%) were called active. About 18% were inconclusive and are not listed. Some of the results follow.
Just the number.

molecule=CN[C@@H](C)[C@@H](O)c1ccccc1 reported=0.985
molecule=COc1ccc2c(c1)O[C@@H]1COc3cc(OC)c(OC)cc3[C@@H]1C2=O reported=0.228
molecule=COc1ccc2c3c1O[C@H]1C[C@@H](O)C=C[C@@]31CCN(C)C2 reported=1.01

Quick one: normalized growth for "COc1ccc2c(C)cc(=O)oc2c1" ?
1

Ok, now "CN1CCC(=C2c3ccccc3CCc3sccc32)CC1"
0.98

Ok, now "COc1cc2c(cc1OC)[C@@H]1C(=O)c3ccc4c(c3O[C@@H]1CO2)C=CC(C)(C)O4"
0.89

Ok, now CC1CC2C3CCC4=CC(=O)C=C[C@]4(C)[C@@]3(F)[C@@H](O)C[C@]2(C)[C@@]1(O)C(=O)CO (some centres undefined)
1.01

Ok, now "CCCCCCCCCCCCCCCC(=O)OC/C=C(C)/C=C/C=C(C)/C=C/C1=C(C)CCCC1(C)C"
1

Ok, now "CN1CCC(=C2c3ccccc3Sc3ccccc32)CC1"
1.01

Ok, now "NC(=O)c1ccc[n+]([C@@H]2O[C@H](COP(=O)([O-])OP(=O)(O)OC[C@H]3O[C@@H](n4cnc5c(N)ncnc54)[C@H](O)[C@@H]3O)[C@@H](O)[C@H]2O)c1"
1.03

Ok, now Cc1cccc(C)c1OCC(C)N (centres undefined)
1.03

Ok, now CC(NCCc1ccc(O)cc1)C(O)c1ccc(O)cc1 (centres undefined)
0.987

Ok, now COc1ccc(OC)c(C(O)C(C)N)c1 (centres undefined)
0.989

Ok, now "COc1cc2c(cc1OC)[C@@H]1C(=O)c3ccc(O)c(CC=C(C)C)c3O[C@@H]1CO2"
0.961

Ok, now "COC1=C(OC)C(=O)C(C/C=C(\C)CC/C=C(\C)CC/C=C(\C)CC/C=C(/C)CC/C=C(\C)CC/C=C(\C)CC/C=C(\C)CC/C=C(\C)CC/C=C(\C)CCC=C(C)C)=C(C)C1=O"
0.991

Ok, now "COc1cc(NS(=O)(=O)c2ccc(N)cc2)nc(OC)n1"
0.972

Ok, now "CCC(=O)O[C@H]1[C@H](O[C@@H]2[C@@H](C)[C@H](O[C@H]3C[C@@](C)(OC)[C@@H](O)[C@H](C)O3)[C@@H](C)C(=O)O[C@H](CC)[C@@](C)(O)[C@H](O)[C@@H](C)C(=O)[C@H](C)C[C@@]2(C)O)O[C@H](C)C[C@@H]1N(C)C"
0.596

Ok, now "COc1cc(O)c(C(=O)/C=C/c2ccc(OC)c(O)c2)c(OC)c1"
0.793

Ok, now "O=C(O)c1cc2ccccc2c(Cc2c(O)c(C(=O)O)cc3ccccc23)c1O"
0.991
